# Study target: Sodium-dependent serotonin transporter (Rattus norvegicus)
# Experiment summary: Binding affinity for rat 5-hydroxytryptamine transporter.
Parameter IC50: see the listing below.
Number plus unit, in that order.

Below, 5 molecules whose answers are already recorded.
Fc1ccc(C(OCCN2CC3CCC(C2)N3C/C=C/c2cccs2)c2ccc(F)cc2)cc1: 46 nM
Fc1ccc(C(OCCN2CC3CCC(C2)N3Cc2cc3ccccc3[nH]2)c2ccc(F)cc2)cc1: 104 nM
CN1CC2CC1CN2CCOC(c1ccc(F)cc1)c1ccc(F)cc1 (configuration not stated): 1700 nM
c1ccc(C(OCCN2CCC3CCC(C2)N3)c2ccccc2)cc1 (configuration not stated): 6060 nM
Fc1ccc(C(OCCN2CC3CCC(C2)N3C/C=C/c2cccnc2)c2ccc(F)cc2)cc1: 395 nM

I'd like to know its IC50. The molecule in question is "c1ccc(CCCN2C3CCC2CN(CCOC(c2ccccc2)c2ccccc2)C3)cc1"
740 nM

Can you check "CN1C2CCC1CN(CCOC(c1ccc(F)cc1)c1ccc(F)cc1)C2" next?
705 nM

====

# Study target: Sodium-dependent dopamine transporter (Rattus norvegicus, UniProt P23977)
# Sequence (P23977 whole entry): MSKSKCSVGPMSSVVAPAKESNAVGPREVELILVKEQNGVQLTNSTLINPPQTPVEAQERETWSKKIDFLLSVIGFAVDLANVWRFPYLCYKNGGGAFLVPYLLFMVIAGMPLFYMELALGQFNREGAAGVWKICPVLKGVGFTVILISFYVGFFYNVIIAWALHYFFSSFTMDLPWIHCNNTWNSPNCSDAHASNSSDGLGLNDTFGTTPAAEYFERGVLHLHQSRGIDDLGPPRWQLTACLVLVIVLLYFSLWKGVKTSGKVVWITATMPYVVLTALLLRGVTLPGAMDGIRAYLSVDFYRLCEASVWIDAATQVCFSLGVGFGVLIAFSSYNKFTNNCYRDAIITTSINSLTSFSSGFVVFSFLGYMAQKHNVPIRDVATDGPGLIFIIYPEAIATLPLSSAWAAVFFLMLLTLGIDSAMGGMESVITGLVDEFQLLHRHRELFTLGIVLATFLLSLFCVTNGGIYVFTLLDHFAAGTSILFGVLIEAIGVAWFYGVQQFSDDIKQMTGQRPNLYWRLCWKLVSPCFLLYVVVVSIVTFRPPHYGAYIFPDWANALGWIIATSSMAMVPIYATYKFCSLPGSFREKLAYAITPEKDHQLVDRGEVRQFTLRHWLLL
# Experiment summary: Binding affinity for rat Dopamine transporter.
Parameter pIC50: see the listing below.
Notebook: values listed as pIC50 are -log10 of the concentration (mol/L).

Below, 2 compounds whose answers are already recorded.
CN1CC2CC1CN2CCOC(c1ccccc1)c1ccccc1 (configuration not stated): 5.93
Fc1ccc(C(OCCN2CC3CCC(C2)N3C/C=C/c2ccco2)c2ccc(F)cc2)cc1: 8.26

I'd like to know its pIC50. The compound in question is CN1C2CCC1CN(CCOC(c1ccccc1)c1ccccc1)CC2 (configuration not stated)
6.51

Can you check c1ccc(C(OCCN2CCC3CCC(C2)N3)c2ccccc2)cc1 (configuration not stated) next?
6.37

Can you check Fc1ccc(C(OCCN2CC3CC2CN3CCCc2ccccc2)c2ccc(F)cc2)cc1 (configuration not stated) next?
6.90

Can you check "Fc1ccc(C(OCCN2CC3CCC(C2)N3Cc2cc3ccccc3[nH]2)c2ccc(F)cc2)cc1" next?
8.85

Can you check c1ccc(CCCN2CC3CC2CN3CCOC(c2ccccc2)c2ccccc2)cc1 (configuration not stated) next?
6.65

====

# Study target: Sodium-dependent dopamine transporter (Rattus norvegicus)
# Experiment summary: Inhibition of [3H]DA reuptake in rat caudate homogenate.
# Format: functional, tissue-based
We label by threshold. Values of IC50 strictly beneath 90 nM are Fulfilled. Values of 90 nM and up are Not fulfilled.

CN1C2CCC1CN(CCOC(c1ccc(F)cc1)c1ccc(F)cc1)CC2 (configuration not stated): Fulfilled
Fc1ccc(C(OCCN2CC3CCC(C2)N3C/C=C/c2ccco2)c2ccc(F)cc2)cc1: Fulfilled
c1ccc(CCCN2CC3CC2CN3CCOC(c2ccccc2)c2ccccc2)cc1 (configuration not stated): Not fulfilled
CN1CC2CC1CN2CCOC(c1ccccc1)c1ccccc1 (configuration not stated): Not fulfilled
CN1C2CCC1CN(CCOC(c1ccc(F)cc1)c1ccc(F)cc1)C2: Fulfilled

Regarding CN1CC2CC1CN2CCOC(c1ccc(F)cc1)c1ccc(F)cc1 (configuration not stated) , kindly confirm whether its IC50 is beneath 90 nM.
Not fulfilled

====

# Study target: Monoamine transporters; serotonin & dopamine (Rattus norvegicus) (UniProt P31652+P23977)
# Sequence (P23977 whole entry, looked up): as the sequence (P23977 whole entry) above
# Sequence (P31652 whole entry, looked up): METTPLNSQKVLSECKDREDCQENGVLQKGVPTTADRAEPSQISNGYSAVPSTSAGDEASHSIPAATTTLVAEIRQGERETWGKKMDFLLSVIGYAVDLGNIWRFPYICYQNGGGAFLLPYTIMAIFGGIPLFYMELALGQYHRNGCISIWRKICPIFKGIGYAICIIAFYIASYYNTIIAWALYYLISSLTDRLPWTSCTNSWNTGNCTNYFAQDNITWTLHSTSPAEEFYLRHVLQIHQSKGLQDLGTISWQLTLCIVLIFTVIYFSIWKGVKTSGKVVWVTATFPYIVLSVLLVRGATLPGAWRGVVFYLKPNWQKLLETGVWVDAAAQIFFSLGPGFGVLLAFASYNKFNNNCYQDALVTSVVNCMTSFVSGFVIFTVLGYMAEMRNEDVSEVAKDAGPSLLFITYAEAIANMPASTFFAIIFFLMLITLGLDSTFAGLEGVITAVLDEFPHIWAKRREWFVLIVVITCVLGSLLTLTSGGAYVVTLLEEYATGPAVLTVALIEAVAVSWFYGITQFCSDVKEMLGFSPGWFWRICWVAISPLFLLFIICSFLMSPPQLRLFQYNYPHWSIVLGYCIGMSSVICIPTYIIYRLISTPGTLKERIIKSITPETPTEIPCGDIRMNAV
# Experiment summary: Ratio of binding affinity of 5-HT to that of DA
# Assay type: protein assay
Parameter Ratio: see the listing below.
Just the number, please, no unit attached.

CN1C2CCC1CN(CCOC(c1ccc(F)cc1)c1ccc(F)cc1)CC2 (stereo unspecified): 21
Fc1ccc(C(OCCN2CC3CCC(C2)N3C/C=C/c2cccs2)c2ccc(F)cc2)cc1: 12
CN1C2CCC1CN(CCOC(c1ccccc1)c1ccccc1)C2: 58

Next:
I'd like to know its Ratio. The compound in question is c1ccc(C(OCCN2CCC3CCC(C2)N3)c2ccccc2)cc1 (stereo unspecified)
14
